Where do the numbers come from? From ChEMBL document CHEMBL4049390.

Kindly state IC50 for each of the entries shown.
system: HepG2; test: Antiproliferative activity against human HepG2 cells after 72 hrs by MTT assay; type: functional, cell-based; details: HepG2, 72 h
The reply should contain only the number, in µM.

(Q) Indicate its recorded IC50; the molecule in question is C=C(C)[C@@H]1CC[C@]2(C(=O)OCc3nc(C)c(C)nc3C)CC[C@]3(C)[C@H](CC[C@@H]4[C@@]5(C)CC[C@H](OC(=O)CN(C)C(=O)CNC)C(C)(C)[C@@H]5CC[C@]43C)[C@@H]12
(A) 3.94

(Q) Indicate its recorded IC50; the molecule in question is C=C(C)[C@@H]1CC[C@]2(C(=O)OCc3nc(C)c(C)nc3C)CC[C@]3(C)[C@H](CC[C@@H]4[C@@]5(C)CC[C@H](OC(=O)[C@H](C)NC(=O)CNC)C(C)(C)[C@@H]5CC[C@]43C)[C@@H]12
(A) 3.09

---

test system: HepG2; assay: Antiproliferative activity against human HepG2 cells after 72 hrs by MTT assay; format: functional, cell-based; details: HepG2, 72 h
MEASURED_PARAMETER: IC50 (µM)
The reply should contain only the number, in µM.

(Q) Give IC50 only, for C=C(C)[C@@H]1CC[C@]2(C(=O)OCc3nc(C)c(C)nc3C)CC[C@]3(C)[C@H](CC[C@@H]4[C@@]5(C)CC[C@H](OC(=O)[C@@H](N)[C@@H](C)CC)C(C)(C)[C@@H]5CC[C@]43C)[C@@H]12 , using HepG2 data.
(A) 12.7

(Q) Give IC50 only, for C=C(C)[C@@H]1CC[C@]2(C(=O)OCc3nc(C)c(C)nc3C)CC[C@]3(C)[C@H](CC[C@@H]4[C@@]5(C)CC[C@H](OC(=O)CNC(=O)[C@H](C)N)C(C)(C)[C@@H]5CC[C@]43C)[C@@H]12 , using HepG2 data.
(A) 2.27

(Q) Give IC50 only, for C=C(C)[C@@H]1CC[C@]2(C(=O)OCc3nc(C)c(C)nc3C)CC[C@]3(C)[C@H](CC[C@@H]4[C@@]5(C)CC[C@H](OC(=O)[C@H](C)NC(=O)[C@H](C)N)C(C)(C)[C@@H]5CC[C@]43C)[C@@H]12 , using HepG2 data.
(A) 1.93

(Q) Give IC50 only, for C=C(C)[C@@H]1CC[C@]2(C(=O)OCc3nc(C)c(C)nc3C)CC[C@]3(C)[C@H](CC[C@@H]4[C@@]5(C)CC[C@H](OC(=O)[C@@H](N)[C@@H](C)O)C(C)(C)[C@@H]5CC[C@]43C)[C@@H]12 , using HepG2 data.
(A) 3.64

(Q) Give IC50 only, for C=C(C)[C@@H]1CC[C@]2(C(=O)OCc3nc(C)c(C)nc3C)CC[C@]3(C)[C@H](CC[C@@H]4[C@@]5(C)CC[C@H](OC(=O)[C@@H](N)CCCCN)C(C)(C)[C@@H]5CC[C@]43C)[C@@H]12 , using HepG2 data.
(A) 2.39

(Q) Give IC50 only, for C=C(C)[C@@H]1CC[C@]2(C(=O)OCc3nc(C)c(C)nc3C)CC[C@]3(C)[C@H](CC[C@@H]4[C@@]5(C)CC[C@H](OC(=O)CN(C)C(=O)[C@H](C)N)C(C)(C)[C@@H]5CC[C@]43C)[C@@H]12 , using HepG2 data.
(A) 4.27

(Q) Give IC50 only, for C=C(C)[C@@H]1CC[C@]2(C(=O)OCc3nc(C)c(C)nc3C)CC[C@]3(C)[C@H](CC[C@@H]4[C@@]5(C)CC[C@H](OC(=O)CN(C)C(=O)CN)C(C)(C)[C@@H]5CC[C@]43C)[C@@H]12 , using HepG2 data.
(A) 4.94

(Q) Give IC50 only, for C=C(C)[C@@H]1CC[C@]2(C(=O)OCc3nc(C)c(C)nc3C)CC[C@]3(C)[C@H](CC[C@@H]4[C@@]5(C)CC[C@H](OC(=O)CN)C(C)(C)[C@@H]5CC[C@]43C)[C@@H]12 , using HepG2 data.
(A) 6.77

---

test system: HepG2; assay: Antiproliferative activity against human HepG2 cells after 72 hrs by MTT assay; assay type: functional, cell-based; settings: HepG2, 72 h
MEASURED_PARAMETER: IC50 (µM)
The reply should contain only the number, in µM.

(Q) Indicate its recorded IC50; the compound in question is C=C(C)[C@@H]1CC[C@]2(C(=O)OCc3nc(C)c(C)nc3C)CC[C@]3(C)[C@H](CC[C@@H]4[C@@]5(C)CC[C@H](O)C(C)(C)[C@@H]5CC[C@]43C)[C@@H]12
(A) 5.7

(Q) Indicate its recorded IC50; the compound in question is C=C(C)[C@@H]1CC[C@]2(C(=O)OCc3nc(C)c(C)nc3C)CC[C@]3(C)[C@H](CC[C@@H]4[C@@]5(C)CC[C@H](OC(=O)CNC(=O)CNC)C(C)(C)[C@@H]5CC[C@]43C)[C@@H]12
(A) 5.27

(Q) Indicate its recorded IC50; the compound in question is C=C(C)[C@@H]1CC[C@]2(C(=O)OCc3nc(C)c(C)nc3C)CC[C@]3(C)[C@H](CC[C@@H]4[C@@]5(C)CC[C@H](OC(=O)[C@@H](N)C(C)C)C(C)(C)[C@@H]5CC[C@]43C)[C@@H]12
(A) 5.91

(Q) Indicate its recorded IC50; the compound in question is C=C(C)[C@@H]1CC[C@]2(C(=O)OCc3nc(C)c(C)nc3C)CC[C@]3(C)[C@H](CC[C@@H]4[C@@]5(C)CC[C@H](OC(=O)[C@H](C)NC(=O)[C@@H]6CCCN6)C(C)(C)[C@@H]5CC[C@]43C)[C@@H]12
(A) 3.39

(Q) Indicate its recorded IC50; the compound in question is C=C(C)[C@@H]1CC[C@]2(C(=O)OCc3nc(C)c(C)nc3C)CC[C@]3(C)[C@H](CC[C@@H]4[C@@]5(C)CC[C@H](OC(=O)[C@@H]6CCC(=O)N6)C(C)(C)[C@@H]5CC[C@]43C)[C@@H]12
(A) 5.86

(Q) Indicate its recorded IC50; the compound in question is C=C(C)[C@@H]1CC[C@]2(C(=O)OCc3nc(C)c(C)nc3C)CC[C@]3(C)[C@H](CC[C@@H]4[C@@]5(C)CC[C@H](OC(=O)[C@H](C)NC(=O)CN)C(C)(C)[C@@H]5CC[C@]43C)[C@@H]12
(A) 2.17

(Q) Indicate its recorded IC50; the compound in question is C=C(C)[C@@H]1CC[C@]2(C(=O)OCc3nc(C)c(C)nc3C)CC[C@]3(C)[C@H](CC[C@@H]4[C@@]5(C)CC[C@H](OC(=O)CNC(=O)CN)C(C)(C)[C@@H]5CC[C@]43C)[C@@H]12
(A) 4

(Q) Indicate its recorded IC50; the compound in question is C=C(C)[C@@H]1CC[C@]2(C(=O)OCc3nc(C)c(C)nc3C)CC[C@]3(C)[C@H](CC[C@@H]4[C@@]5(C)CC[C@H](OC(=O)[C@@H](N)CO)C(C)(C)[C@@H]5CC[C@]43C)[C@@H]12
(A) 4.03

(Q) Indicate its recorded IC50; the compound in question is C=C(C)[C@@H]1CC[C@]2(C(=O)OCc3nc(C)c(C)nc3C)CC[C@]3(C)[C@H](CC[C@@H]4[C@@]5(C)CC[C@H](OC(=O)CN(C)C(=O)[C@@H]6CCCN6)C(C)(C)[C@@H]5CC[C@]43C)[C@@H]12
(A) 3.75

(Q) Indicate its recorded IC50; the compound in question is C=C(C)[C@@H]1CC[C@]2(C(=O)OCc3nc(C)c(C)nc3C)CC[C@]3(C)[C@H](CC[C@@H]4[C@@]5(C)CC[C@H](OC(=O)[C@@H]6CCCN6)C(C)(C)[C@@H]5CC[C@]43C)[C@@H]12
(A) 4.54

(Q) Indicate its recorded IC50; the compound in question is C=C(C)[C@@H]1CC[C@]2(C(=O)OCc3nc(C)c(C)nc3C)CC[C@]3(C)[C@H](CC[C@@H]4[C@@]5(C)CC[C@H](OC(=O)CNC)C(C)(C)[C@@H]5CC[C@]43C)[C@@H]12
(A) 4.5

(Q) Indicate its recorded IC50; the compound in question is C=C(C)[C@@H]1CC[C@]2(C(=O)OCc3nc(C)c(C)nc3C)CC[C@]3(C)[C@H](CC[C@@H]4[C@@]5(C)CC[C@H](OC(=O)CNC(=O)[C@@H]6CCCN6)C(C)(C)[C@@H]5CC[C@]43C)[C@@H]12
(A) 3.48

---

Kindly state IC50 for each of the entries shown.
test system: HepG2; experiment: Antiproliferative activity against human HepG2 cells after 72 hrs by MTT assay; format: functional, cell-based; details: HepG2, 72 h

(Q) Indicate its recorded IC50; the compound in question is C=C(C)[C@@H]1CC[C@]2(C(=O)OCc3nc(C)c(C)nc3C)CC[C@]3(C)[C@H](CC[C@@H]4[C@@]5(C)CC[C@H](OC(=O)[C@H](N)CC(=O)O)C(C)(C)[C@@H]5CC[C@]43C)[C@@H]12
(A) > 20 µM

(Q) Indicate its recorded IC50; the compound in question is C=C(C)[C@@H]1CC[C@]2(C(=O)OCc3nc(C)c(C)nc3C)CC[C@]3(C)[C@H](CC[C@@H]4[C@@]5(C)CC[C@H](OC(=O)[C@@H](N)Cc6ccccc6)C(C)(C)[C@@H]5CC[C@]43C)[C@@H]12
(A) > 40 µM

(Q) Indicate its recorded IC50; the compound in question is C=C(C)[C@@H]1CC[C@]2(C(=O)OCc3nc(C)c(C)nc3C)CC[C@]3(C)[C@H](CC[C@@H]4[C@@]5(C)CC[C@H](OC(=O)[C@@H](N)Cc6c[nH]c7ccccc67)C(C)(C)[C@@H]5CC[C@]43C)[C@@H]12
(A) > 40 µM

(Q) Indicate its recorded IC50; the compound in question is C=C(C)[C@@H]1CC[C@]2(C(=O)OCc3nc(C)c(C)nc3C)CC[C@]3(C)[C@H](CC[C@@H]4[C@@]5(C)CC[C@H](OC(=O)[C@@H](N)CC(C)C)C(C)(C)[C@@H]5CC[C@]43C)[C@@H]12
(A) > 40 µM
